# Target: Nuclear receptor subfamily 1 group I member 3 (Homo sapiens)
# Method Notes: qHTS assay to identify small molecule antagonists of the constitutive androstane receptor (CAR) signaling pathway (AID 1224838);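 note: HepG2 cells stably expressing hCAR with CYP2B6 luciferase reporter stimulated by CITCO; nearly all actives have a fitted effect of over 40% in size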
# Test Settings: HepG2-CYP2B6-hCAR luciferase, CITCO-stimulated, 24 h; series mostly up to 92.4 µM
Records with an inconclusive call do not appear. The source made the active and inactive calls. Calls come from the whole dose curve; as a rule, active = well fitted inhibition curve with a large enough effect in the repeat runs; inconclusive = weak or mixed curves, or effect the other way; inactive = no such curve, though single readings can be large or run the other way.
Reply using exactly one outcome from active, inactive

Look over these answered cases.
# input Short answer needed: outcome of this test for COc1cc(C(=O)NS(=O)(=O)c2ccccc2C)ccc1Cc1cn(C)c2ccc(NC(=O)OC3CCCC3)cc12 ?
# output inactive

# input In this assay, the call recorded for CCCC(O)C(O)CO (stereo not drawn) was what?
# output inactive

# input Answer briefly: the call reported for OCCN1CN(CCO)CN(CCO)C1 in this assay.
# output inactive

---
# input What classification did C=CC(C)(CCC=C(C)C)OC(=O)/C=C/c1ccccc1 (stereo not drawn) end up with in this test?
# output inactive

---

# Method Notes: qHTS assay to identify small molecule antagonists of the estrogen receptor alpha (ER-alpha) signaling pathway using the BG1 cell line (AID 743080);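 note: BG1 cells stimulated with 17beta-estradiol alongside compound; nearly all actives have a fitted effect of over 25% in size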
# Test Settings: BG1Luc4E2 ERE-luciferase antagonist mode, luminescence
Records with an inconclusive call do not appear. Activity calls are given as the source filed them. The call rests on the fitted dose curve.
Lab note: assign the record to one of active, inactive

Consider the worked cases shown below.
# input Could you please tell me the result logged for CN(Cc1cc(Br)cc(Br)c1N)C1CCCCC1 in this assay?
# output inactive

# input Could you kindly confirm the outcome this assay logged for CCOC(=O)COc1ccc(C)cc1 ?
# output inactive

# input Test call, this compound: CCCCCCCC/C=C/CCCOC(C)=O
# output inactive

# input Recorded test call requested for CC(COC(=O)c1ccccc1)OC(=O)c1ccccc1 (stereo not given)
# output inactive

# input Assay result, entry C[Si](C)(C)Cl — outcome?
# output inactive

Consider the record given below.
# input Per the records of this test, what outcome belongs to CCOC(=O)C1=C(C)NC(C)=C(C(=O)OCC)C1c1ccccc1/C=C/C(=O)OC(C)(C)C ?
# output active

---

# Method Notes: qHTS assay to identify small molecule antagonists of the androgen receptor (AR) signaling pathway using the MDA cell line in the presence of 0.5 nM R1881 - cell viability counter screen (AID 1259242); note: nearly all actives have a fitted effect of over 45% in size
# Test Settings: MDA-kb2 viability, CellTiter-Fluor protease fluorescence, 16 h; series mostly up to 92.4 µM
Inconclusive results are not listed. Active and inactive are the calls of the source. The call rests on the fitted dose curve; in most records, active means well fitted cell-killing curve with a large enough effect in the repeat runs; inconclusive means weak or mixed curves, or effect the other way; inactive means flat fitted curve, though single readings scatter.
API: response.call in 1 for active, -1 for inactive

# input Outcome logged for CCCCCCC(C)Nc1ccc(Nc2ccccc2)cc1 (centres undefined) in this assay:
# output -1

# input Please let me know the test result on file for CC=O .
# output 1

# input Name the outcome recorded for Nc1ncnc2c1ncn2[C@@H]1O[C@H](COP(=O)(O)O)[C@@H](O)[C@H]1O in the assay.
# output -1

# input Please share the test call associated with CC(COC(=O)c1ccccc1)OC(=O)c1ccccc1 (centres undefined) .
# output -1

# input How did this test come out for COC(=O)CC(C)CCC=C(C)C (centres undefined) ?
# output -1

# input Recorded test call requested for Cc1cncc(C)c1
# output -1

---
# input Any idea what this test logged for COc1ccc(-n2nc(CCC(=O)N(C)O)cc2-c2ccc(Cl)cc2)cc1 ?
# output -1

# input Would you mind telling me which call this test gave CCOC(=O)C1=C(C)NC(C)=C(C(=O)OCC)C1c1ccccc1/C=C/C(=O)OC(C)(C)C ?
# output -1

# input GET /call?item= COc1cc(C(=O)NS(=O)(=O)c2ccccc2C)ccc1Cc1cn(C)c2ccc(NC(=O)OC3CCCC3)cc12 returns the recorded outcome of this test.
# output -1

# input // outcome(item) with item = CC1(C)C(=O)N(Br)C(=O)N1Br
# output -1

# input What is the recorded call for this molecule in the test? COc1ccc(C#N)cc1
# output -1

# input Answer briefly: the call reported for O=Cc1ccc(F)cc1 in this assay.
# output -1

# input Hi team, can someone confirm the assay call for O=C1OC(OC(=O)c2cccnc2Nc2cccc(C(F)(F)F)c2)c2ccccc21 (centres undefined) ?
# output -1

# input GET /call?item= CC(C)c1cccc(C(C)C)c1N1C(=O)c2ccc(O)cc2C1=O returns the recorded outcome of this test.
# output -1

# input Which outcome was assigned to Cc1cccc(Br)c1 in this test?
# output -1

# input Kindly provide the recorded test outcome for the following molecule: CCC(=O)OCCc1ccccc1
# output -1

Reference for the values: PubChem BioAssay (Tox21)
